For each entry below, report its normalised inhibition (eCFP-eYFP dual reporter) value.
Target: UBE2V1
Experiment: reporter assay of Huesken 2005; also: test concentration or dose not given here
Conditions: siRNA
Oligonucleotides are written 5' to 3', each unit as a sugar letter and its base; * is a phosphorothioate linkage, no mark a phosphodiester; rarer units and linkages stand in square brackets, end groups in braces. Plain capitals give the bases only. d = 2'-deoxy (DNA); r = 2'-OH (RNA)
Answers are plain numbers, in %.

Before answering, review these 2 worked examples.
{"Substance": "sense rUrCrCrCrUrCrArGrCrCrGrCrCrCrGrArArGrGdTdT / antisense rCrCrUrUrCrGrGrGrCrGrGrCrUrGrArGrGrGrAdGdT", "Assay Value": 46.6}
{"Substance": "sense rArArArGrGrArGrUrArArArArGrUrCrCrCrUrCdTdT / antisense rGrArGrGrGrArCrUrUrUrUrArCrUrCrCrUrUrUdGdC", "Assay Value": 65.6}

# evaluate next
Can you look up the measured normalised inhibition (eCFP-eYFP dual reporter) of sense rUrUrCrCrGrArCrUrGrUrUrGrGrArArGrArArCdTdT / antisense rGrUrUrCrUrUrCrCrArArCrArGrUrCrGrGrArAdAdT for me?
52.3

----------
Molecular target: TMEM63B
Experiment: reporter assay of Huesken 2005
Conditions: siRNA
Oligonucleotides are given in HELM: sugar(base)linkage, 5' to 3'; d 2'-deoxyribose, r ribose, m 2'-O-methylribose, p phosphate. ss, as = sense and antisense strand
Exercise: for every item that follows, state its recorded normalised inhibition (eCFP-eYFP dual reporter).
Answers are plain numbers, in %.

{"Substance": "RNA1{r(C)p.r(A)p.r(G)p.r(C)p.r(U)p.r(C)p.r(C)p.r(G)p.r(U)p.r(U)p.r(G)p.r(A)p.r(C)p.r(U)p.r(U)p.r(U)p.r(G)p.r(A)p.r(C)p.d(T)p.d(T)}|RNA2{r(G)p.r(U)p.r(C)p.r(A)p.r(A)p.r(A)p.r(G)p.r(U)p.r(C)p.r(A)p.r(A)p.r(C)p.r(G)p.r(G)p.r(A)p.r(G)p.r(C)p.r(U)p.r(G)p.d(G)p.d(A)}$$$RNA1{StrandType:ss}|RNA2{StrandType:as}$", "Target Of Assay": "TMEM63B", "Assay Value": 84.4}

Respectfully, I request normalised inhibition (eCFP-eYFP dual reporter) for each entry included below.
1. RNA1{r(G)p.r(C)p.r(U)p.r(A)p.r(U)p.r(G)p.r(C)p.r(A)p.r(C)p.r(G)p.r(G)p.r(G)p.r(G)p.r(A)p.r(C)p.r(A)p.r(G)p.r(C)p.r(C)p.d(T)p.d(T)}|RNA2{r(G)p.r(G)p.r(C)p.r(U)p.r(G)p.r(U)p.r(C)p.r(C)p.r(C)p.r(C)p.r(G)p.r(U)p.r(G)p.r(C)p.r(A)p.r(U)p.r(A)p.r(G)p.r(C)p.d(T)p.d(G)}$$$RNA1{StrandType:ss}|RNA2{StrandType:as}$
2. RNA1{r(U)p.r(C)p.r(C)p.r(G)p.r(A)p.r(G)p.r(G)p.r(C)p.r(U)p.r(U)p.r(C)p.r(A)p.r(U)p.r(C)p.r(U)p.r(G)p.r(G)p.r(U)p.r(G)p.d(T)p.d(T)}|RNA2{r(C)p.r(A)p.r(C)p.r(C)p.r(A)p.r(G)p.r(A)p.r(U)p.r(G)p.r(A)p.r(A)p.r(G)p.r(C)p.r(C)p.r(U)p.r(C)p.r(G)p.r(G)p.r(A)p.d(T)p.d(G)}$$$RNA1{StrandType:ss}|RNA2{StrandType:as}$
3. RNA1{r(C)p.r(C)p.r(C)p.r(A)p.r(U)p.r(C)p.r(A)p.r(U)p.r(C)p.r(A)p.r(C)p.r(C)p.r(C)p.r(A)p.r(G)p.r(U)p.r(U)p.r(C)p.r(U)p.d(T)p.d(T)}|RNA2{r(A)p.r(G)p.r(A)p.r(A)p.r(C)p.r(U)p.r(G)p.r(G)p.r(G)p.r(U)p.r(G)p.r(A)p.r(U)p.r(G)p.r(A)p.r(U)p.r(G)p.r(G)p.r(G)p.d(G)p.d(T)}$$$RNA1{StrandType:ss}|RNA2{StrandType:as}$
4. RNA1{r(A)p.r(U)p.r(C)p.r(U)p.r(G)p.r(C)p.r(G)p.r(A)p.r(A)p.r(A)p.r(U)p.r(A)p.r(C)p.r(A)p.r(U)p.r(C)p.r(G)p.r(C)p.r(U)p.d(T)p.d(T)}|RNA2{r(A)p.r(G)p.r(C)p.r(G)p.r(A)p.r(U)p.r(G)p.r(U)p.r(A)p.r(U)p.r(U)p.r(U)p.r(C)p.r(G)p.r(C)p.r(A)p.r(G)p.r(A)p.r(U)p.d(T)p.d(T)}$$$RNA1{StrandType:ss}|RNA2{StrandType:as}$

73.2
29.2
68.7
50.5

----------
Target: UBE2N
Assay: reporter assay of Huesken 2005
Conditions: siRNA
Oligonucleotides are given in HELM: sugar(base)linkage, 5' to 3'; d 2'-deoxyribose, r ribose, m 2'-O-methylribose, p phosphate. ss, as = sense and antisense strand
Give measured normalised inhibition (eCFP-eYFP dual reporter) for each item. Keep answers brief.
One number for each entry, in %.

Some solved cases for reference:
{"Substance": "RNA1{r(C)p.r(A)p.r(A)p.r(C)p.r(G)p.r(A)p.r(A)p.r(G)p.r(C)p.r(C)p.r(C)p.r(A)p.r(A)p.r(G)p.r(C)p.r(C)p.r(A)p.r(U)p.r(A)p.d(T)p.d(T)}|RNA2{r(U)p.r(A)p.r(U)p.r(G)p.r(G)p.r(C)p.r(U)p.r(U)p.r(G)p.r(G)p.r(G)p.r(C)p.r(U)p.r(U)p.r(C)p.r(G)p.r(U)p.r(U)p.r(G)p.d(G)p.d(T)}$$$RNA1{StrandType:ss}|RNA2{StrandType:as}$", "Assay Value": 94}
{"Substance": "RNA1{r(C)p.r(A)p.r(G)p.r(U)p.r(G)p.r(G)p.r(A)p.r(A)p.r(G)p.r(A)p.r(C)p.r(C)p.r(A)p.r(A)p.r(C)p.r(G)p.r(A)p.r(A)p.r(G)p.d(T)p.d(T)}|RNA2{r(C)p.r(U)p.r(U)p.r(C)p.r(G)p.r(U)p.r(U)p.r(G)p.r(G)p.r(U)p.r(C)p.r(U)p.r(U)p.r(C)p.r(C)p.r(A)p.r(C)p.r(U)p.r(G)p.d(C)p.d(T)}$$$RNA1{StrandType:ss}|RNA2{StrandType:as}$", "Assay Value": 78}
{"Substance": "RNA1{r(G)p.r(C)p.r(C)p.r(G)p.r(A)p.r(A)p.r(C)p.r(C)p.r(A)p.r(G)p.r(A)p.r(U)p.r(G)p.r(A)p.r(G)p.r(A)p.r(G)p.r(C)p.r(A)p.d(T)p.d(T)}|RNA2{r(U)p.r(G)p.r(C)p.r(U)p.r(C)p.r(U)p.r(C)p.r(A)p.r(U)p.r(C)p.r(U)p.r(G)p.r(G)p.r(U)p.r(U)p.r(C)p.r(G)p.r(G)p.r(C)p.d(T)p.d(T)}$$$RNA1{StrandType:ss}|RNA2{StrandType:as}$", "Assay Value": 82.6}
{"Substance": "RNA1{r(U)p.r(C)p.r(C)p.r(A)p.r(G)p.r(A)p.r(U)p.r(G)p.r(A)p.r(U)p.r(C)p.r(C)p.r(A)p.r(U)p.r(U)p.r(A)p.r(G)p.r(C)p.r(A)p.d(T)p.d(T)}|RNA2{r(U)p.r(G)p.r(C)p.r(U)p.r(A)p.r(A)p.r(U)p.r(G)p.r(G)p.r(A)p.r(U)p.r(C)p.r(A)p.r(U)p.r(C)p.r(U)p.r(G)p.r(G)p.r(A)p.d(T)p.d(T)}$$$RNA1{StrandType:ss}|RNA2{StrandType:as}$", "Assay Value": 85.9}

Now for the substance whose normalised inhibition (eCFP-eYFP dual reporter) we want.
If you can, please state the reported normalised inhibition (eCFP-eYFP dual reporter) value of RNA1{r(G)p.r(G)p.r(A)p.r(C)p.r(U)p.r(U)p.r(U)p.r(U)p.r(A)p.r(A)p.r(A)p.r(C)p.r(U)p.r(U)p.r(G)p.r(A)p.r(A)p.r(C)p.r(U)p.d(T)p.d(T)}|RNA2{r(A)p.r(G)p.r(U)p.r(U)p.r(C)p.r(A)p.r(A)p.r(G)p.r(U)p.r(U)p.r(U)p.r(A)p.r(A)p.r(A)p.r(A)p.r(G)p.r(U)p.r(C)p.r(C)p.d(C)p.d(T)}$$$RNA1{StrandType:ss}|RNA2{StrandType:as}$ .
87.2

----------
Consider the following substances; for each one, report its normalised inhibition (eCFP-eYFP dual reporter).
Target: UBE2D3
Test: reporter assay of Huesken 2005
Conditions: siRNA
Oligonucleotides are given in HELM: sugar(base)linkage, 5' to 3'; d 2'-deoxyribose, r ribose, m 2'-O-methylribose, p phosphate. ss, as = sense and antisense strand

Below: 2 substances and their reported normalised inhibition (eCFP-eYFP dual reporter).
{"Substance": "RNA1{r(G)p.r(U)p.r(G)p.r(G)p.r(U)p.r(C)p.r(G)p.r(C)p.r(C)p.r(U)p.r(G)p.r(C)p.r(U)p.r(U)p.r(U)p.r(A)p.r(A)p.r(C)p.r(A)p.d(T)p.d(T)}|RNA2{r(U)p.r(G)p.r(U)p.r(U)p.r(A)p.r(A)p.r(A)p.r(G)p.r(C)p.r(A)p.r(G)p.r(G)p.r(C)p.r(G)p.r(A)p.r(C)p.r(C)p.r(A)p.r(C)p.d(T)p.d(G)}$$$RNA1{StrandType:ss}|RNA2{StrandType:as}$", "Assay Value": "100%"}
{"Substance": "RNA1{r(U)p.r(A)p.r(G)p.r(U)p.r(G)p.r(C)p.r(C)p.r(A)p.r(G)p.r(A)p.r(G)p.r(A)p.r(U)p.r(U)p.r(G)p.r(C)p.r(A)p.r(C)p.r(G)p.d(T)p.d(T)}|RNA2{r(C)p.r(G)p.r(U)p.r(G)p.r(C)p.r(A)p.r(A)p.r(U)p.r(C)p.r(U)p.r(C)p.r(U)p.r(G)p.r(G)p.r(C)p.r(A)p.r(C)p.r(U)p.r(A)p.d(G)p.d(G)}$$$RNA1{StrandType:ss}|RNA2{StrandType:as}$", "Assay Value": "62.4%"}

Then there is this substance:
normalised inhibition (eCFP-eYFP dual reporter) lookup needed for RNA1{r(C)p.r(U)p.r(A)p.r(C)p.r(A)p.r(G)p.r(A)p.r(C)p.r(U)p.r(A)p.r(C)p.r(C)p.r(C)p.r(C)p.r(U)p.r(U)p.r(C)p.r(A)p.r(A)p.d(T)p.d(T)}|RNA2{r(U)p.r(U)p.r(G)p.r(A)p.r(A)p.r(G)p.r(G)p.r(G)p.r(G)p.r(U)p.r(A)p.r(G)p.r(U)p.r(C)p.r(U)p.r(G)p.r(U)p.r(A)p.r(G)p.d(G)p.d(A)}$$$RNA1{StrandType:ss}|RNA2{StrandType:as}$ , thanks.
94.9%
